target: TDO (Homo sapiens, UniProt P48775); assay: hTDO biochemical coupled assay; settings: 330 μM L-tryptophan, 17 minutes, room temperature; read-out: hTDO biochemical assay pIC50 (converted)
Sequence (P48775 whole entry): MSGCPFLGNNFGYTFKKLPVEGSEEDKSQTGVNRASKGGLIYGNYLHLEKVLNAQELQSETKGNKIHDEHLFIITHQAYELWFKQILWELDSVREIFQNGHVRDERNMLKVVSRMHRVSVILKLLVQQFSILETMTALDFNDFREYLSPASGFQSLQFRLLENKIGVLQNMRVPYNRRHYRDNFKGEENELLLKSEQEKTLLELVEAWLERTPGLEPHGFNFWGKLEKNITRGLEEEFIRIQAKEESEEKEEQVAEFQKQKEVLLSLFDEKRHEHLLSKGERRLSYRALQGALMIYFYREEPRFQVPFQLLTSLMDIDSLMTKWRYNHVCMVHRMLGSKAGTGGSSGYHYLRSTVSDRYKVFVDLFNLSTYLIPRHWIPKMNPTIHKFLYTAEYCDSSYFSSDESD
measured.endpoint: IC50

Before answering, review these 3 worked examples.
>>> assay_value("O=C1NC2(CCN(c3cc(Cl)cc4[nH]ncc34)CC2)C(=O)N1Cc1ncco1")
"< 3.16 µM"
>>> assay_value("O=S(=O)(Nc1cccc2[nH]ncc12)c1ccccc1")
"32.4 to 100 µM"
>>> assay_value("CS(=O)(=O)N1CCC(c2cc(N3CCCC3)cc3[nH]ncc23)CC1")
"> 100 µM"

// IC50 lookup, key: "CC(=O)N1CCC(c2cc(C3CCCC3)cc3[nH]ncc23)CC1"
> 100 µM

Please answer likewise for "c1ccc(Nc2cccc3[nH]ncc23)cc1"
< 3.16 µM

Proceed to "CC1(C)CN(c2cc(Cl)cc3[nH]ncc23)CCN1CCNS(C)(=O)=O"
< 3.16 µM

And CC(=O)NC1CCN(c2cc(Cl)cc3[nH]ncc23)CC1(C)C (stereo not drawn) ?
< 3.16 µM

Same thing, different compound: "CC(C)CN1C(=O)NC2(CCN(c3cc(Cl)cc4[nH]ncc34)CC2)C1=O"
< 3.16 µM

Then what about the compound "O=C1N[C@H]2CC[C@@H]1CN(c1cc(C(F)(F)F)cc3[nH]ncc13)C2" ?
< 3.16 µM

* * *

IC50 values, listed per item
target: TDO (Homo sapiens); assay: A172 kynurenine cell-based assay; design: This assay utilised cancer cells which expressed either TDO or IDO; endogenous in cells; host or cells: A172 (human glioblastoma); details: A172 human glioblastoma cells, 48 hours, 500 μM L-tryptophan; read-out: A172 Kynurenine cell based assay pIC50 (converted)

Can you look up the measured IC50 of CC(=O)NC1CCC(c2cc(Cl)cc3[nH]ncc23)CC1 (mixture of isomers) for me?
< 3.16 µM

// same read-out, input: "O=S(=O)(C1CCCC1)N1CCC(c2cc(Cl)cc3[nH]ncc23)CC1"
< 3.16 µM

Another: "CS(=O)(=O)N1CCN(c2cc(Cl)cc3c(N)n[nH]c23)CC1"
3.24 to 31.6 µM

Now try "CC(C)c1cc(N2CCN(S(C)(=O)=O)C(C)(C)C2)c2cn[nH]c2c1" .
< 3.16 µM

Request: "O=C1NC2(CCN(c3cc(Cl)cc4[nH]ncc34)CC2)C(=O)N1CC1CCCCC1"
< 3.16 µM

Param item: OC(CC1CCOCC1)c1cc(Cl)cc2[nH]ncc12 (stereo not drawn)
< 3.16 µM

Another molecule to look at: CS(=O)(=O)NC1CCN(c2cc(Cl)cc3[nH]ncc23)C1 (stereo not drawn)
< 3.16 µM

"Clc1cc(N2CCN(c3nccs3)CC2)c2cn[nH]c2c1" ?
< 3.16 µM

Further, for CS(=O)(=O)N1CC2CC1CN2c1cc(Cl)cc2[nH]ncc12 (stereo not drawn) ?
< 3.16 µM

Okay, and "CS(=O)(=O)N1CCC(c2cc(N3CCCC3)cc3[nH]ncc23)CC1" ?
32.4 to 100 µM

// same read-out, input: "CC1(C)CN(c2cc(Cl)cc3c(N)noc23)CCN1S(C)(=O)=O"
> 100 µM

Next up: "O=C1NC2(CCN(c3cc(Cl)cc4[nH]ncc34)CC2)C(=O)N1CC1CCOCC1"
< 3.16 µM

Next: "CS(=O)(=O)c1ccc(-c2cc(Cl)cc3[nH]ncc23)cc1Cl"
< 3.16 µM

Next record, please: "CC(=O)N1CCN(c2cc(OC(F)(F)F)cc3[nH]ncc23)CC1"
32.4 to 100 µM

Same again, this time with "CN(CC1CCN(c2cc(Cl)cc3[nH]ncc23)CC1)S(C)(=O)=O"
< 3.16 µM

Another molecule to look at: "COc1cc(S(C)(=O)=O)ccc1-c1cc(Cl)cc2[nH]ncc12"
< 3.16 µM

Note, next up: "COCCS(=O)(=O)N1CCN(c2cc(Cl)cc3[nH]ncc23)CC1"
< 3.16 µM

Request: "CS(=O)(=O)c1ccc(-c2cc(Cl)cc3[nH]ncc23)c(Cl)c1"
< 3.16 µM
